// data source = patent US20150329467A1

assay: Solubility check: coated film of Cytop CTL-809M fluororesin solution observed by optical microscope for bleed-out or undissolved compound; type: physicochemical; conditions: compound at 0.3 wt % with respect to Cytop CTL-809M in perfluorotributylamine/1,1,1,3,3,3-hexafluoropropan-2-ol/Cytop CTL-809M=91/5/4 (parts by weight); film 1.5 μm on glass, dried

compound	Solubility
CC(C)(C)c1cc(CCC(=O)OCC(O)CC(F)(F)C(F)(F)C(F)(F)C(F)(F)C(F)(F)C(F)(F)C(F)(F)C(F)(F)F)cc(C(C)(C)C)c1O (stereo not drawn)	Compatible
CC(C)(C)c1cc(CCC(=O)OCCC(F)(F)C(F)(F)C(F)(F)C(F)(F)C(F)(F)C(F)(F)F)cc(C(C)(C)C)c1O	Compatible
CC(C)(C)c1cc(CCC(=O)OC(CO)CC(F)(F)C(F)(F)C(F)(F)C(F)(F)C(F)(F)C(F)(F)F)cc(C(C)(C)C)c1O (stereo not drawn)	Compatible
